# target.of.assay: FGFR1 (Homo sapiens, UniProt P11362)
# Construct: made in house; host or cells: E. coli (BL21-derived), T7 phage
# Sequence (P11362 22-822): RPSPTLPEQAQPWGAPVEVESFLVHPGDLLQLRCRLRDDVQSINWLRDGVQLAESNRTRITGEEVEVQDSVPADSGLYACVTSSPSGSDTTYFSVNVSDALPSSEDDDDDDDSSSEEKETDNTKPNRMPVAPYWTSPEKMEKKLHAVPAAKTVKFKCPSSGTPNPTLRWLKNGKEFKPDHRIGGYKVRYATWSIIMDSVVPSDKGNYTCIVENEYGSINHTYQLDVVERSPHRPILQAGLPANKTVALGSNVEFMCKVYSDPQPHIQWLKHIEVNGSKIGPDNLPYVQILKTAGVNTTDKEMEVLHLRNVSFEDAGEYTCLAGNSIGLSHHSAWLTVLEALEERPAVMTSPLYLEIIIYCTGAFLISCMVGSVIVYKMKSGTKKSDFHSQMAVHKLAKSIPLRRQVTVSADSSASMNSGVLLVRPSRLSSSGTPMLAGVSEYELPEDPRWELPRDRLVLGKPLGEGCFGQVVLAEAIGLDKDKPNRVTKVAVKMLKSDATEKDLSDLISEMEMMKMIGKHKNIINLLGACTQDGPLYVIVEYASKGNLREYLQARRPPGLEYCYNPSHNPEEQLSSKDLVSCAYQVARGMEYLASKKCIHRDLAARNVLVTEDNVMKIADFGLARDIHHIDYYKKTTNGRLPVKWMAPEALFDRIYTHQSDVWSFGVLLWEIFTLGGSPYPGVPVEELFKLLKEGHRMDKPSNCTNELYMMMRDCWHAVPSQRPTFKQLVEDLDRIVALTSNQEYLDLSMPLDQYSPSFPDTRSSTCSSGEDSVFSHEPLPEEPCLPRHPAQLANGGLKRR
# procedure.details: Kinase binding assay (kinase-tagged T7 phage, affinity beads, qPCR), Kd
# test.conditions: read-out: FGFR1 (Kd nM)
Quick list: Kd per entry.

mol.smiles: C[C@H](Oc1ccc2[nH]nc(-c3cnc(N4CC(C)(N(C)C)C4)c(F)c3)c2c1)c1c(Cl)cncc1Cl
Kd: 300 to 1000 nM
--
mol.smiles: COc1cc2[nH]nc(-c3cnc(N4CC(C)(N(C)C)C4)c(C#N)c3)c2cc1O[C@H](C)c1c(Cl)cncc1Cl
Kd: 1 to 50 nM
--
mol.smiles: CNC1(C)CN(c2ncc(-c3n[nH]c4ccc(O[C@H](C)c5c(Cl)cnc(C)c5Cl)cc34)cc2C#N)C1
Kd: 1 to 50 nM
--
mol.smiles: C[C@@H](Oc1ccc2[nH]nc(-c3cnc(N4CCC(N)(CS(C)(=O)=O)CC4)c(F)c3)c2c1)c1c(Cl)cncc1Cl
Kd: 1 to 50 nM
--
mol.smiles: Cc1ncc(Cl)c([C@@H](C)Oc2ccc3[nH]nc(-c4cnc(N5CC(CC#N)(NCC(C)C)C5)c(F)c4)c3c2)c1Cl
Kd: 50 to 300 nM
--
mol.smiles: C[C@@H](Oc1ccc2[nH]nc(-c3cnc(N4CC(C)(N(C)C)C4)c(C#N)c3)c2c1)c1c(Cl)cncc1Cl
Kd: 50 to 300 nM
--
mol.smiles: CC(C)=CCC1(N)CN(c2ncc(-c3n[nH]c4ccc(O[C@H](C)c5c(Cl)cncc5Cl)cc34)cc2F)C1
Kd: 1 to 50 nM
--
mol.smiles: C[C@@H](Oc1ccc2[nH]nc(-c3cnc(N4CC(C)(N5CCOCC5)C4)nc3)c2c1)c1c(Cl)cncc1Cl
Kd: 1 to 50 nM
